- Target Entity: MT P45014DM (Mycobacterium tuberculosis, UniProt P9WPP9)
- Measurement Protocol: biochemical
- Format: binding
- Parameters: DNA segments encoding full length proteins preferably have a coding length on the order of about 1353 nucleotides; made in house; host or cells: E. coli HMS174, vector pet17b

>  <Molecule>
CC(C)=CCC[C@@H](C)[C@H]1CC[C@@]2(C)C3=C(CC[C@]12C)[C@@]1(C)CC[C@H](O)C(C)(C)[C@@H]1CC3

>  <sterol binding to the enzyme (yes/no)>
binds

$$$$
>  <Molecule>
CC(C)CCC[C@@H](C)[C@H]1CC[C@@]2(C)C3=C(CC[C@]12C)[C@@]1(C)CC[C@H](O)C(C)(C)[C@@H]1CC3 [DHL, 24,25-dihydrolanosterol]

>  <sterol binding to the enzyme (yes/no)>
binds

$$$$

* * *

- Target Entity: MT P45014DM (Mycobacterium tuberculosis, UniProt P9WPP9)
- Measurement Protocol: biochemical
- Assay type: binding
- Parameters: DNA segments encoding full length proteins preferably have a coding length on the order of about 1353 nucleotides; made in house; host or cells: E. coli HMS174, vector pet17b
Metric: sterol binding to the enzyme (yes/no)

>  <Molecule>
C=C(CC[C@@H](C)[C@H]1CC[C@@]2(C)C3=C(CC[C@]12C)[C@@]1(C)CC[C@H](O)[C@@H](C)[C@@H]1CC3)C(C)C [obtusifoliol]

>  <Observed Measurement>
binds

$$$$

* * *

- Target Entity: MT P45014DM (Mycobacterium tuberculosis)
- Measurement Protocol: biochemical
- Type: binding
- Set-up: DNA segments encoding full length proteins preferably have a coding length on the order of about 1353 nucleotides; made in house; host or cells: E. coli HMS174, vector pet17b
Metric: Kd

Given item CC(=O)N1CCN(c2ccc(OCC3COC(Cn4ccnc4)(c4ccc(Cl)cc4Cl)O3)cc2)CC1 (stereo not shown) , the value recorded as its Kd is ~5 µM
